Recorded growth values for a group of compounds are listed next.
# Tested on: PC-3 prostate
# Measurement Description: NCI-60 one-dose screen, 48 h (100 = growth as untreated, 0 = no growth, -100 = all killed)
# Protocol Conditions: 10 µM
Compounds without any hit were thinned out: in the full panel of roughly 83,000, 20% have a hit.
Hi! Could you send only the number? It should be in %, unit omitted.

Past entries and their recorded results:
> print(dat)
                                   molecule  experimental.readout  measured.value
1  O=C(/C=C/c1ccc(Cl)cc1)c1nc2ccccc2n1Cc1ccc(Br)cc1                growth            36.6
2  O=C(/C=C/c1cccc(Br)c1)c1nc2ccccc2n1Cc1ccc(F)cc1                growth            23.8
3  CC1=C(CCC=O)C2=C(C)C3(CC3)[C@@](C)(O)C(=O)C2=C1                growth           -40.6
4  O=C(/C=C/c1ccc(Br)cc1)c1nc2ccccc2n1Cc1ccc(Br)cc1                growth            18.7

Reported growth ( `COP(=O)(CC(F)(F)C(F)(F)F)OC` ) = 69.5

Reported growth ( `COc1cc2cc(C(=O)N3C[C@@H](CCl)c4c3cc(OC(=O)N3CCN(C(=O)CCC(=O)N5CCN(C)CC5)[C@@H]5CSSC[C@@H]53)c3ccccc43)[nH]c2c(OC)c1OC` ) = -10.5
